Literature compilation of log10 IC50 measurements on Prostaglandin E2 receptor EP4 subtype (Homo sapiens, UniProt P35408).
Units before log transform: nM; reported quantity: IC50; transform: log10.

Examples with answers:
compound	assay-endpoint	recorded-number
O=c1[nH]c(-c2ccc(-c3cc(NCCc4c(F)cc(Br)cc4F)ncn3)cc2)no1	log10 IC50	2.17
CCOc1c2c(c(OCC)c3ncccc13)CN(c1ccc(CS(=O)(=O)NC(=O)C3(c4ccc(Cl)cc4Cl)CC3)cc1C)C2=O	log10 IC50	-0.12

What log10 IC50 appears in the records for this compound with Prostaglandin E2 receptor EP4 subtype (Homo sapiens, UniProt P35408)? `CCOc1cc(-c2cc(NCCc3ccc(Br)cc3N(C)C)ncn2)sc1-c1noc(=O)[nH]1`
2.40

Would you mind doing O=C(O)c1ccc(CC2Sc3c(Cl)cccc3N(Cc3ccccc3C(F)(F)F)C2=O)cc1 (centres unmarked) as well?
-0.52

Would you mind doing `CCOc1nc(-c2cc(NCCc3c(F)cc(Br)cc3F)ncn2)sc1C(=O)O` as well?
0.90

Would you mind doing `COc1cc(C(F)(F)F)ccc1CCNc1cc(-c2ccc(C(=O)O)c(SC)c2)ncn1` as well?
2.57

Would you mind doing `Fc1cc(Br)cc(F)c1CCNc1cc(-c2ccc3nccn3c2)ncn1` as well?
2.94

Would you mind doing `Cc1ccc(CCNc2cc(-c3cc(C(F)(F)F)c(C(=O)O)s3)ncn2)cc1` as well?
1.90

Would you mind doing `O=C(O)Cc1ccc(-c2cc(NCCc3c(F)cc(Br)cc3F)ncn2)cc1OC(F)F` as well?
2.68
